Origin of the recorded values: the MegaScale stability set (Tsuboyama et al. 2023)

Listed here are variants together with their documented folding stability dG.
B1: EEHEE_rd4_0763 (parent)
chain: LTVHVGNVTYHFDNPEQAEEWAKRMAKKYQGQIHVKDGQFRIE

variants of: B1; experiment: folding stability dG (cDNA display proteolysis); higher = more stable; conditions: PBS, room temperature
// note: answer is a bare numeric in kcal/mol

Previously resolved entries follow.
> print(dat)
                            sequence.string     measured.quantity  observed
1  LTVHVGNVTYHVDNPEQAEEWAKRMAKKYQGQIHVKDGQFRIE [F12V]  folding stability dG     0.101
2  LTVHVGNYTYHFDNPEQAEEWAKRMAKKYQGQIHVKDGQFRIE [V8Y]  folding stability dG      1.78
3  LTVHVGNQTYHFDNPEQAEEWAKRMAKKYQGQIHVKDGQFRIE [V8Q]  folding stability dG      1.58

// query folding stability dG value for entry LTVHVGNVTYHFDNPEQAEEWAKRMAKKYKGQIHVKDGQFRIE [Q30K]
1.92

Okay, and LTVHVGNVTYHFDNPEQAEEWAKRMAKVYQGQIHVKDGQFRIE [K28V] ?
1.43

Same again, this time with LTVHVGNVTYHFDNPEQAEEQAKRMAKKYQGQIHVKDGQFRIE [W21Q]
0.239
